# assay.protocol: Oral bioavailability in Sprague-Dawley rat
# Format: ADME, organism-based
# recorded.conditions: in vivo
value.type: bioavailability (%)
Note: unit % is implicit; provide only the numeric part.

INPUT: Fill in reported bioavailability for this entry: CCN(CC)c1ccc2nc3c4ccccc4/c(=N\c4ccncc4)cc-3oc2c1
OUTPUT: 30

====

# assay.protocol: Selectivity index, ratio of IC50 for rat L6 cells to IC50 for Plasmodium falciparum K1
# Assay type: toxicity, cell-based
# recorded.conditions: read-out: Ratio IC50
One threshold, 300, splits the recorded selectivity ratio values: lower ones are y, equal or higher ones are n.

Known results for compounds:
CC[N+](CC)=c1ccc2nc3c(ccc4ccccc43)oc-2c1; y
CCN(CC)c1ccc2nc3c4ccccc4/c(=N/c4ccc(C)cc4)cc-3oc2c1.Cl; n

INPUT: Could you please tell me whether selectivity ratio recorded for CCN(CC)c1ccc2nc3c4ccccc4/c(=N\c4ncccn4)cc-3oc2c1 is less than 300?
OUTPUT: n

INPUT: Could you please tell me whether selectivity ratio recorded for CCCCN(CCCC)c1ccc2nc3c4ccccc4/c(=N/c4ccncc4)cc-3oc2c1.Cl.Cl is less than 300?
OUTPUT: n

INPUT: Could you please tell me whether selectivity ratio recorded for CCN(CC)c1ccc2nc3c4ccccc4/c(=N\c4ccc5ccccc5n4)cc-3oc2c1 is less than 300?
OUTPUT: n

====

Recorded measurements of IC50, one per entry
# Test system: L6
# assay.protocol: Cytotoxicity against rat L6 cells
# Type: cell-based
Note: unit µM is implicit; provide only the numeric part.

Please review the following examples before continuing.
CCN(CC)c1ccc2nc3c4ccccc4/c(=N\c4ccncc4)cc-3oc2c1; 55.7
CCN(CC)c1ccc2nc3c4ccccc4/c(=N/c4ccc(C)cc4)cc-3oc2c1.Cl; 123
CCCCN(CCCC)c1ccc2nc3c4ccccc4/c(=N/c4ccncc4)cc-3oc2c1.Cl.Cl; 63.8

INPUT: Fill in reported IC50 for this entry: CCN(CC)c1ccc2nc3c4ccccc4/c(=N\c4cccnc4)cc-3oc2c1
OUTPUT: 117

INPUT: Fill in reported IC50 for this entry: CC[N+](CC)=c1ccc2nc3c(ccc4ccccc43)oc-2c1
OUTPUT: 3.82

INPUT: Fill in reported IC50 for this entry: CCN(CC)c1ccc2nc3c4ccccc4/c(=N/c4cc[n+](C)cc4)cc-3oc2c1.[I-]
OUTPUT: 1.56

INPUT: Fill in reported IC50 for this entry: CCN(CC)c1cc(C)c2nc3c4ccccc4/c(=N/c4ccncc4)cc-3oc2c1.Cl.Cl
OUTPUT: 86.6

INPUT: Fill in reported IC50 for this entry: CCN(CC)c1ccc2nc3c4ccccc4/c(=N\c4ccc5ccccc5n4)cc-3oc2c1
OUTPUT: 67.9

INPUT: Fill in reported IC50 for this entry: CCN(CC)c1ccc2nc3c4ccccc4/c(=N/c4nc5ccc(OC)cc5s4)cc-3oc2c1
OUTPUT: 168

====

# System: L6
# assay.protocol: Cytotoxicity against rat L6 cells
# Format: cell-based
Entries are grouped by IC50 into these classes: group 1: < 20 µM; group 2: ≥ 20 µM and < 100 µM; group 3: ≥ 100 µM

CCN(CC)c1ccc2nc3c4ccccc4c(=O)cc-3oc2c1; group 2
CC[N+](CC)=c1ccc2nc3c(cc(N)c4ccccc43)oc-2c1.[Cl-] [NILE BLUE HYDROCHLORIDE]; group 2
CCN(CC)c1ccc2nc3c4ccccc4/c(=N\c4ncccn4)cc-3oc2c1; group 1

INPUT: Class (by measured IC50) for c1ccc2/c(=N/c3ccncc3)cc3oc4cc(N5CCOCC5)ccc4nc-3c2c1
OUTPUT: group 2

INPUT: Class (by measured IC50) for CCN(CC)c1ccc2nc3c4ccc(Br)cc4/c(=N/c4ccncc4)cc-3oc2c1
OUTPUT: group 3

INPUT: Class (by measured IC50) for CCN(CC)c1ccc2nc3c4ccccc4/c(=N/c4ccccc4)cc-3oc2c1.Cl
OUTPUT: group 3

INPUT: Class (by measured IC50) for CCN(CC)c1ccc2nc3c4ccccc4/c(=N\c4ncc(Cl)cc4Cl)cc-3oc2c1
OUTPUT: group 3

INPUT: Class (by measured IC50) for CCN(CCNS(C)(=O)=O)c1cc(C)c2nc3c4ccccc4/c(=N/c4ccncc4)cc-3oc2c1.Cl.Cl
OUTPUT: group 1

INPUT: Class (by measured IC50) for CCCN(CCC)c1ccc2nc3c4ccccc4/c(=N/c4ccncc4)cc-3oc2c1.Cl.Cl
OUTPUT: group 2

INPUT: Class (by measured IC50) for CCN(CC)c1ccc2nc3c4ccccc4/c(=N/c4cc[n+](Cc5ccccc5)cc4)cc-3oc2c1.[Cl-]
OUTPUT: group 1

INPUT: Class (by measured IC50) for CCN(CC)c1ccc2nc3c4ccccc4/c(=N\c4ccccn4)cc-3oc2c1
OUTPUT: group 1

INPUT: Class (by measured IC50) for CCN(CC)c1ccc2nc3c4ccc(Br)cc4/c(=N/c4ccccn4)cc-3oc2c1
OUTPUT: group 3

INPUT: Class (by measured IC50) for CN(C)c1ccc2nc3c4ccccc4/c(=N/c4ccncc4)cc-3oc2c1
OUTPUT: group 3
